System: HOP-62
Assay: NCI tumour cell line growth inhibition, 48 h
Calls of active or inactive are those of the source. Cut-off read from the data, not from the text of the source: active = GI50 up to about 1.1 µM and inactive = higher.
Readout: GI50

Completed entries (count: 3):
CN(C)CCCOC(=O)C(c1ccccc1)C1(O)CCSCC1 (centres undefined) : > 100 µM (inactive)
Cc1ccc(S(=O)(=O)N/N=C(/c2nc3ccc([N+](=O)[O-])cc3nc2O)C(O)c2ccc(C(O)/C(=N\NS(=O)(=O)c3ccc(C)cc3)c3nc4ccc([N+](=O)[O-])cc4nc3O)cc2)cc1 (centres undefined) : 43.1 µM (inactive)
Cc1cccc(C)c1NC(=O)CCC(=O)/N=C(\N)NC#N : > 100 µM (inactive)

--- query ---
Q: Report GI50 for N#CC1C(=O)NC2=C(CCOc3c2ccc2ccccc32)C1c1ccc(F)cc1 (centres undefined) please.
Result: 18.5 µM (inactive)

====

Tested on: SF-295
Assay: NCI tumour cell line growth inhibition, 48 h
The source made the active and inactive calls. No stated cut-off is given here; in the data, active = GI50 up to about 1.1 µM and inactive = higher.
GI50 values, listed per item

Completed entries (count: 2):
Cn1c2ccccc2c2ccc3c(c21)C(=O)C(c1ccccc1)=CC3=O : 61.4 µM (inactive)
O=C1CCCCC/C=C2/CC[C@H](Sc3ccccc3)[C@@H]12 : 40.6 µM (inactive)

--- query ---
Q: Report GI50 for CC1(C)C(C#N)C1C1=C(N2CCOCC2)[C@]2(C)C(OC(=O)c3ccccc3)CC[C@@H]2C1 (stereo partly drawn) please.
Result: > 100 µM (inactive)

====

Test system: Malme-3M
Test: NCI tumour cell line growth inhibition, 48 h
Activity calls are given as the source filed them. No stated cut-off is given here; in the data, active = GI50 up to about 1.1 µM and inactive = higher.
Readout: GI50

Completed entries (count: 4):
CNC(=S)NNc1ncnc2c1ncn2-c1ccc(C)cc1 : > 100 µM (inactive)
CCCCCCCCCCCCOCCOCCOCCOCCOCCOCC(=O)NC(Cc1ccccc1)C(=O)Oc1ccc([N+](=O)[O-])cc1 (stereo not given) : 29.6 µM (inactive)
CC1C(/C=C/c2ccoc2)ON2CCCC12 (stereo not given) : 54.2 µM (inactive)
CC12CCC(C)(c3cc(O)c(O)cc31)c1cc(O)c(O)cc12 : 18.3 µM (inactive)

--- query ---
Q: Recorded GI50 for COc1cc(-c2nc3cc(F)ccc3s2)ccc1O with Malme-3M, please?
Result: 78.9 µM (inactive)

====

System: SF-539
Experiment: NCI tumour cell line growth inhibition, 48 h
The source made the active and inactive calls. Cut-off read from the data, not from the text of the source: active = GI50 up to about 1.1 µM and inactive = higher.
Readout: GI50

CC(=O)CC(=O)N(CCN(C(=O)CC(C)=O)c1ccccc1)c1ccccc1 : > 100 µM (inactive)
C=CCCCCC1CCC2CCC(CCCCC=C)N12 (stereo unspecified) : 16.9 µM (inactive)
O=C1/C(=C/c2ccc(Cl)c(Cl)c2)CNC/C1=C\c1ccc(Cl)c(Cl)c1 : 7.87 µM (inactive)
COc1ccc(Nc2nc3ccccc3nc2C(=O)O)cc1 : > 100 µM (inactive)
Cc1nc(C)c(C(=O)NNC(=O)Cc2ccccc2)cc1C(=O)NNC(=O)Cc1ccccc1 : > 100 µM (inactive)
CN(N)c1cc(=O)[nH]c(=O)[nH]1 : > 100 µM (inactive)

Q: Report GI50 for COC(=O)[C@]1(C)CCCn2c(=O)n(-c3ccccc3)c(=O)n21 please.
Result: > 100 µM (inactive)

Q: Report GI50 for Nc1ccn(C2CC3OCC3O2)c(=O)n1 (stereo unspecified) please.
Result: > 100 µM (inactive)

// data source = ChEMBL document CHEMBL1201862
